growth inhibition listing for selected molecules.
- PROTOCOL SUMMARY: NCI Yeast Anticancer Drug Screen. Data for the cln2 rad14 strain (AID 165);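 further: 0% = growth equal to vehicle treated cultures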
- CONDITION LABEL: S. cerevisiae cln2 rad14 strain, at 50.0 µM, hits give high values
This is part of a sample that, as a whole, favours compounds with a hit. Of some 79,000 tested, about 15% had one in any assay.

SMI	UNIT STRING	growth inhibition
Cc1nc(C)c(N2CCN(CN)CC2)c(=O)[nH]1	%	30.6
CC(=O)OCc1cccc(O)c1C(=O)CCC=C(C)C	%	-10.9
NCC(=O)c1c[nH]c(=O)[nH]c1=O	%	-42.5
C[N+](C)(N)c1nc(N)c(C#N)c(C#N)c1C#N	%	-24.4
CCOC(=O)c1ccc(N)cc1	%	-9.55
COc1ccc2nc(C)cc(N/N=C/c3cccc(C)n3)c2c1	%	-0.8
O=C(N/C(=C\c1ccccc1Cl)c1nc2ccccc2[nH]1)c1ccccc1	%	10.2

---

- PROTOCOL SUMMARY: NCI Yeast Anticancer Drug Screen. Data for the mlh1 rad18 strain (AID 175)
- CONDITION LABEL: S. cerevisiae mlh1 rad18 strain growth inhibition; at 50.0 µM; hits give high values
About 79,000 compounds went through this panel and 15% of them were active in at least one assay; those are over-represented in the sample as a whole.
Is growth inhibition at least 10%? Then T. If not, F.

COMPOUND	GROUP LABEL
O=C(O)CNC(CO)(CO)CO	F
O=C1N=C2SC(=S)NC(=S)N2NC12c1ccccc1-c1ccccc12	T
O=C(O)C(c1ccccc1)C(O)C1CCCCC1 (stereo not given)	F
CN(C)C1=NC(NC2CCCCC2)(N(C)C)OC(N(C)C)=N1 (stereo not given)	T
CCCCCCCCCCCCCCCCN=C1C=Cc2ccccc2C1=NCCCCCCCCCCCCCCCC	F
CCCCN1C(=O)C(CC(=O)OCC)SC1=S (stereo not given)	F
Cc1ccc(S(=O)(=O)Nc2ccccc2-c2nc3ccc([N+](=O)[O-])cc3c(=O)o2)cc1	T
CCC1(C(=O)OC)CCC2C3CCC4CCCCC4(C)C3CCC21C (stereo not given)	T
CCC(O)CNCc1ccnc2ccc(OC)cc12 (stereo not given)	F
CC(C)(C)NC(NC(C)(C)C)=C(/C=C(/Cl)[N+](=O)[O-])[N+](=O)[O-]	T
Cc1ccc(N=Nc2sc(N)nc2-c2ccc(Cl)cc2)cc1	T
c1ccc(C2OCCO2)cc1	T
C#CCN	F
O=C(NC1(C(=O)Oc2ccc([N+](=O)[O-])cc2)CCCC1)OCc1ccccc1	T
NC(=O)c1nc2ccccc2nc1Nc1ccc(Cl)cc1Cl	T
CNC(=O)C1CCCN1C(=O)C(Cl)Cl (stereo not given)	T
CCOc1ccccc1NC(=O)Nc1ccccc1Cl	T
Nc1cc(Cl)c(I)c(Cl)c1	T
CCOC(=O)c1nc(SC)sc1NC(=O)c1ccc([N+](=O)[O-])cc1	F
Cc1nn(-c2ccccc2)c2oc3ccccc3c(=O)c12	F
C1=CC2=CC=CC3c4nc5ccc6ccccc6c5nc4C(=C1)C23 (stereo not given)	F
CN1C(=O)C2CC(=O)N(Cc3ccccc3)C(=O)C2C1=O (stereo not given)	F
CCOC(=O)c1[nH]c2nc(N)ncc2c(=O)c1C	T
CCOC(=O)/C(=C(/C)N=Cc1ccccc1[N+](=O)[O-])C(NN=O)c1ccccc1[N+](=O)[O-] (stereo not given)	T

# credit: PubChem BioAssay (NCI)
